Cited source for all entries: the NIST ThermoML archive (doi:10.1016/j.tca.2014.09.022)

test: Molar enthalpy of transition or fusion; details: Crystal; DSC
Measured endpoint: Molar enthalpy of transition or fusion (kcal/mol)
Note: unit kcal/mol is implicit; provide only the numeric part.

These solved cases illustrate the format of a correct answer.
>>> recorded_result("O=C(O)CCCC(=O)O [1,5-pentanedioic acid]")
5.02
>>> recorded_result("OC[C@@H](O)[C@@H](O)CO [meso-1,2,3,4-butanetetrol]")
9.54
>>> recorded_result("OCCCCCCCCCCO [1,10-decanediol]")
10.7
>>> recorded_result("CNC(N)=O [methylurea]")
3.05
>>> recorded_result("Oc1ccc(O)cc1 [1,4-benzenediol]")
5.68

IN: Respond only with Molar enthalpy of transition or fusion recorded for O=C(O)CCCCCCCCC(=O)O [1,10-decanedioic acid]
OUT: 10.7

----------
conditions: Crystal; DTA
Listing: Triple point temperature of selected molecules
Answer with a number only, understood to be in K.

>>> recorded_result("O=C(O)CCCCCCCCC(=O)O [1,10-decanedioic acid]")
405.65
>>> recorded_result("Oc1ccc(O)cc1 [1,4-benzenediol]")
445.65
>>> recorded_result("CNC(N)=O [methylurea]")
368.15
>>> recorded_result("OC[C@@H](O)[C@@H](O)CO [meso-1,2,3,4-butanetetrol]")
390.15
>>> recorded_result("O=C(O)CCCC(=O)O [1,5-pentanedioic acid]")
369.65

Okay, now this molecule:
IN: Supply Triple point temperature value. Item: OCCCCCCCCCCO [1,10-decanediol]
OUT: 344.65
